# Lookup of reported IC50 keyed by entry
Biological target: human M1 receptor (Homo sapiens, UniProt P11229)
Experiment: In vitro functional assay of muscarinic acetylcholine receptor activity (aequorin calcium flux, reversal of EC80 acetylcholine response)
Format: cell-based
Details: CHO-K1 cells stably expressing human M1 receptor with aequorin; acetylcholine at EC80; calcium flux (luminescence); read-out: M1 IC50
property: IC50

>>> print(df.to_string())
                                   compound  property   endpoint_result
0  N#Cc1ccc(N2C3CCC2CN(C(=O)CCN2CC(c4ccc(F)cc4)C2)C3)nc1      IC50         > 1000 nM
1  N#Cc1ccc(N2[C@@H]3CC[C@H]2CN(C(=O)CCNC(c2cccc4ncsc24)C(F)(F)F)C3)nc1 (mixture of isomers)      IC50           < 10 nM
2  CC(c1ccccc1)[S+]([O-])CCC(=O)N1CC2CCC(C1)N2c1ccc(C#N)cn1 (racemic)      IC50  1000 to 10000 nM
3  CC(c1ccc(F)cc1)S(=O)(=O)CC(=O)N1CC2CCC(C1)N2c1ccc(C#N)cn1 (racemic)      IC50  1000 to 10000 nM
4  N#Cc1ccc(N2C3CCC2CN(C(=O)CCNC2(c4cc(Cl)cc(C#N)c4)CC2)C3)nc1      IC50    100 to 1000 nM
5  COc1ncccc1C(F)(F)CCC(=O)N1CC2CCC(C1)N2c1ccc(C#N)cn1      IC50           < 10 nM
6  N#Cc1ccc(N2C3CCC2CN(C(=O)COC2(c4cc(F)ccc4Br)CC2)C3)nc1      IC50           < 10 nM
7  COc1cc(C2(OCC(=O)N3CC4CCC(C3)N4c3ccc(C#N)cn3)CCC2)ccn1      IC50      10 to 100 nM

---

Biological target: human M1 receptor (Homo sapiens, UniProt P11229)
Test: In vitro functional assay of muscarinic acetylcholine receptor activity (aequorin calcium flux, reversal of EC80 acetylcholine response)
Format: cell-based
Settings: CHO-K1 cells stably expressing human M1 receptor with aequorin; acetylcholine at EC80; calcium flux (luminescence); read-out: M1 IC50
property: IC50

                                    compound   endpoint_result
 0  COc1cccc(C(CO)CCC(=O)N2CC3CCC(C2)N3c2ccc(C#N)cn2)c1 (racemic)           < 10 nM
 1  C[C@@H](OCCC(=O)N1CC2CCC(C1)N2c1ccc(C#N)cn1)c1ccc(F)c(F)c1      10 to 100 nM
 2  N#Cc1ccc(N2[C@@H]3CC[C@H]2CN(C(=O)CCNC2(c4ccc(F)cc4F)CC2)C3)nc1      10 to 100 nM
 3  N#Cc1ccc(N2C[C@@H]3CC[C@H]2CN3C(=O)COC2(c3ccc(F)c(F)c3)CC2)nc1    100 to 1000 nM
 4  N#Cc1ccc(N2C3CCC2CN(C(=O)COC2(c4ccc(F)c(F)c4)COC2)C3)nc1  1000 to 10000 nM
 5  COc1cc(C(F)(F)/C=C/C(=O)N2CC3CCC(C2)N3c2ccc(C#N)cn2)ccn1           < 10 nM
 6  COc1cc(C2(NCC(=O)N3CC4CCC(C3)N4c3ccc(C#N)cn3)CC2)c(F)cn1      10 to 100 nM
 7  N#Cc1ccc(N2C3CCC2CN(C(=O)COC2(c4cccc(F)c4)CC2)C3)nc1    100 to 1000 nM
 8  C[C@H](NCCC(=O)N1C[C@H]2CC[C@@H](C1)N2c1ccc(C#N)cn1)c1ccc(F)cc1F    100 to 1000 nM
 9  N#Cc1ccc(N2C3COCC2CN(C(=O)COC2(c4ccc(F)c(F)c4)CC2)C3)nc1  1000 to 10000 nM
10  CC(c1ccc(F)c(F)c1)N1CC(C(=O)N2CC3CCC(C2)N3c2ccc(C#N)cn2)C1 (racemic)    100 to 1000 nM
11  COc1ccncc1C(F)(F)CCC(=O)N1CC2CCC(C1)N2c1ccc(C#N)cn1           < 10 nM
12  CC(OCC(=O)N1CC2CCC(C1)N2c1ccc(C#N)cn1)c1ccc(C(F)(F)F)nc1 (racemic)         > 1000 nM
13  N#Cc1ccc(N2[C@@H]3CC[C@H]2CN(C(=O)CCNC2(c4ccc(F)c(F)c4)CC2)C3)cn1           < 10 nM
14  N#Cc1ccc(N2[C@@H]3C[C@H]2CN(C(=O)CCNC2(c4ccc(F)c(F)c4)CC2)C3)nc1  1000 to 10000 nM
15  CC(OCC(=O)N1CC2CCC(C1)N2c1ccc(C#N)cn1)c1cccn2ncnc12 (racemic)           < 10 nM

---

Target: human M1 receptor (Homo sapiens)
Sequence (P11229 1-460): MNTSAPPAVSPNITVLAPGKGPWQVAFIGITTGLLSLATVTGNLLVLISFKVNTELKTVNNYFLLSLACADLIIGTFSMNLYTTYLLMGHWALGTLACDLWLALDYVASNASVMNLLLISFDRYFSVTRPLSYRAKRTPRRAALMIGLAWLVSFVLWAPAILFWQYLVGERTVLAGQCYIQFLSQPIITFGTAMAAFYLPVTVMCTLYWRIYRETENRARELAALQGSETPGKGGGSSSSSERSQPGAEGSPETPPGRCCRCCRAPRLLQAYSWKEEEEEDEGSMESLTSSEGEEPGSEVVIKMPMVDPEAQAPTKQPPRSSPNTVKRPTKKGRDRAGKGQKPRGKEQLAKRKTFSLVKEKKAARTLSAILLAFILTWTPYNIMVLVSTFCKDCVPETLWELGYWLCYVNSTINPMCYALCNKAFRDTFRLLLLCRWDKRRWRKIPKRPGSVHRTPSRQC
Assay: In vitro functional assay of muscarinic acetylcholine receptor activity (aequorin calcium flux, reversal of EC80 acetylcholine response)
Assay type: cell-based
Details: CHO-K1 cells stably expressing human M1 receptor with aequorin; acetylcholine at EC80; calcium flux (luminescence); read-out: M1 IC50
Method: CHO-K1 cells stably expressing human M1 receptor with aequorin (Perkin Elmer) were grown in F12 media (Gibco) containing 10% FBS (ATCC), 0.4 mg/mL geneticin (Sigma-Aldrich) and 0.25 mg/mL Zeocin (Invitrogen). Cells were grown as per the manufacturer's protocol. […] Compounds and cells were incubated at room temperature for 30 min in the dark. Acetylcholine at the EC80 concentration was added and calcium flux measured using a FlexStation 3 (Molecular Devices). […]
property: IC50

In [3]: df
Out[3]:
                                    compound                     target_entity   endpoint_result
 0  N#Cc1ccc(N2C[C@@H]3C[C@H]2CN3C(=O)COC2(c3ccc(F)c(F)c3)CC2)nc1  human M1 receptor (Homo sapiens)  1000 to 10000 nM
 1  N#Cc1ccc(N2C3CCC2CN(C(=O)CNC2(c4ccccc4F)CC2)C3)nc1  human M1 receptor (Homo sapiens)    100 to 1000 nM
 2  CC(C)(O)C(NCCC(=O)N1C[C@H]2CC[C@@H](C1)N2c1ccc(C#N)cn1)c1ccccc1 (mixture of isomers)  human M1 receptor (Homo sapiens)  1000 to 10000 nM
 3  N#Cc1cc(N2C3CCC2CN(C(=O)COC2(c4ccncc4F)CCC2)C3)ccn1  human M1 receptor (Homo sapiens)      10 to 100 nM
 4  N#Cc1ccc(N2C3CCC2CN(C(=O)CNC2CCc4ccccc42)C3)nc1 (racemic)  human M1 receptor (Homo sapiens)  1000 to 10000 nM
 5  COc1ccc(F)c(C2(NCC(=O)N3CC4CCC(C3)N4c3ccc(C#N)cn3)CC2)c1  human M1 receptor (Homo sapiens)           < 10 nM
 6  N#Cc1ccc(N2C3CCC2CN(C(=O)CNC2(c4ccccc4)CC2)C3)nc1  human M1 receptor (Homo sapiens)  1000 to 10000 nM
 7  COc1ccccc1[C@H](C)NCC(=O)N1CC2CCC(C1)N2c1ccc(C#N)cn1  human M1 receptor (Homo sapiens)           < 10 nM
 8  N#Cc1ccc(N2C3CCC2CN(C(=O)CCOC(c2cccc4ncnn24)C2CC2)C3)nc1 (racemic)  human M1 receptor (Homo sapiens)           < 10 nM
 9  COc1cc(C(F)(F)CCCC(=O)N2CC3CCC(C2)N3c2ccc(C#N)cn2)ccn1  human M1 receptor (Homo sapiens)    100 to 1000 nM
10  N#Cc1ccc(N2C3CCC2CN(C(=O)COC2(c4ccccn4)CCC2)C3)nc1  human M1 receptor (Homo sapiens)  1000 to 10000 nM
11  N#Cc1ccc(N2C3CCC2CN(C(=O)COC2(c4cc(F)ccn4)CCC2)C3)nc1  human M1 receptor (Homo sapiens)    100 to 1000 nM
12  N#Cc1ccc(N2C3CCC2CN(C(=O)COC2(c4cncc(F)c4)CC2)C3)nc1  human M1 receptor (Homo sapiens)    100 to 1000 nM
13  CC(NCCC(=O)N1CC2CCC(C1)N2c1ccc(C#N)cn1)c1ccc(F)cc1 (stereo in doubt)  human M1 receptor (Homo sapiens)  1000 to 10000 nM
14  N#Cc1ccc(C2(NCCC(=O)N3CC4CCC(C3)N4c3ccc(C#N)cn3)CC2)cc1  human M1 receptor (Homo sapiens)  1000 to 10000 nM
15  COc1cncc(C(F)(F)/C=C/C(=O)N2CC3CCC(C2)N3c2ccc(C#N)cn2)c1  human M1 receptor (Homo sapiens)           < 10 nM
16  C[C@H](NCC(=O)N1C[C@H]2CC[C@@H](C1)N2c1ccc(C#N)cn1)c1cccc2c1OC(F)(F)O2  human M1 receptor (Homo sapiens)           < 10 nM
17  COc1cncc(C2(OCC(=O)N3CC4CCC(C3)N4c3ccc(C#N)cn3)CC2)c1  human M1 receptor (Homo sapiens)           < 10 nM
18  N#Cc1ccc(N2C3CCC2CN(C(=O)COC(c2ccc(F)cc2)C(F)F)C3)nc1 (racemic)  human M1 receptor (Homo sapiens)      10 to 100 nM
19  CC(SCC(=O)N1CC2CCC(C1)N2c1ccc(C#N)cn1)c1ccccc1 (racemic)  human M1 receptor (Homo sapiens)           < 10 nM
